FYI, the data here is from patent US9951063B2.

Biological target: human CXCR3A (Homo sapiens (Human))
Sequence (P49682 whole entry): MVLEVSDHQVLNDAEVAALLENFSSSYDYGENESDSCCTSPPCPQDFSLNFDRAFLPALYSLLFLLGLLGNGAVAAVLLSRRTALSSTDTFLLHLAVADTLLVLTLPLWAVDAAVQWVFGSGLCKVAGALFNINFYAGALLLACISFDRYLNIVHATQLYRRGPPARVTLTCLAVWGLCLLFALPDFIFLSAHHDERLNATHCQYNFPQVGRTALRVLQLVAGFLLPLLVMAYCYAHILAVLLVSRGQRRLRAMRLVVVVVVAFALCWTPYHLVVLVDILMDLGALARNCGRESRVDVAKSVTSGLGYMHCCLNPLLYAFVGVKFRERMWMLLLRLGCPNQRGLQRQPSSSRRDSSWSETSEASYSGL
Assay: FLIPR assay (inhibition of CXCL10-induced calcium signal)
Type: cell-based
Settings: engineered CHO-K1 cells expressing human CXCR3A coupled to Galpha(16); Fluo-4-AM; CXCL10 agonist 20 nM; mean values where determined several times
This section presents molecules with their documented pIC50 values.
Lab note — pIC50 values are minus log10 of concentrations in M.

Assay human CXCR3A (Homo sapiens (Human)), sample CCOc1ncc(N2CCc3c(C(F)(F)F)ccc(N4CCN(C(=O)Cn5nc(C)nc5C)CC4)c3C2)cn1 , pIC50 read: 7.86

For C[C@@H]1CN(c2cccc3c2CN(c2ccc(C(F)(F)F)cc2)CC3)CCN1C(=O)Cn1cnc2cccnc21 on human CXCR3A (Homo sapiens (Human)), measured pIC50 was 7.59

Item: Cc1nc(N2CCc3cccc(N4CCN(C(=O)Cn5cnc6cccnc65)[C@H](C)C4)c3C2)sc1C | System: human CXCR3A (Homo sapiens (Human)) | pIC50: 7.82

Summary: Cc1nc(C)n(CC(=O)N2CCN(c3ccc(C(F)(F)F)c4c3CN(c3cnc(C(F)(F)F)nc3)CC4)C[C@H]2C)n1 , human CXCR3A (Homo sapiens (Human)), pIC50 = 7.91

Measured pIC50 for this entry C[C@@H]1CN(c2cccc3c2CN(C(=O)CCc2ccc(Cl)c(Cl)c2)CC3)CCN1C(=O)Cn1cnc2cccnc21 on human CXCR3A (Homo sapiens (Human)): 7.00

Measured on human CXCR3A (Homo sapiens (Human)), Cc1nc(C)n(CC(=O)N2CCN(c3cccc4c3CN(c3cnc(C(F)(F)F)nc3)CC4)C[C@H]2C)n1 has a documented pIC50 of 7.32

Case C[C@@H]1CN(c2cccc3c2CN(C(=O)c2ccc(C(F)(F)F)cc2)CC3)CCN1C(=O)Cn1cnc2cccnc21 , human CXCR3A (Homo sapiens (Human)), pIC50 recorded as 7.03

Fill in: human CXCR3A (Homo sapiens (Human)) pIC50 for COc1ccc(N2CCc3cccc(N4CCN(C(=O)Cn5cnc6cccnc65)[C@H](C)C4)c3C2)cc1 = 7.69

Lab entry: human CXCR3A (Homo sapiens (Human)) assay, molecule CCOc1ncc(N2CCc3c(C(F)(F)F)ccc(N4CCN(C(=O)Cn5nc(C)nc5C)[C@H](C)C4)c3C2)cn1 , pIC50 = 8.21
